UniProt:P0DTD1 IC50 data

{"Compound": "O=C(O)CC[C@H](NC(=O)C1=C(C(F)(F)F)NC(=S)NC1c1ccc([N+](=O)[O-])cc1)C(=O)O (stereo partly drawn) [8f]", "Experimental Target": "UniProt:P0DTD1", "IC50, µM": 36.8}
{"Compound": "O=C(O)CC[C@H](NC(=O)C1=C(C(F)(F)F)NC(=S)NC1c1ccc(C(F)(F)F)cc1)C(=O)O (stereo partly drawn) [8a]", "Experimental Target": "UniProt:P0DTD1", "IC50, µM": 23.2}
{"Compound": "CS(=O)(=O)n1cc2c(n1)CN(CC(=O)SC1=NC(c3ccc([N+](=O)[O-])cc3)C(C(=O)N[C@@H](CCC(=O)O)C(=O)O)=C(C(F)(F)F)N1)C2 (stereo partly drawn) [12j]", "Experimental Target": "UniProt:P0DTD1", "IC50, µM": 0.063}
{"Compound": "O=C(Nc1ccc(S(=O)(=O)O)cc1)C1=C(C(F)(F)F)NC(=S)NC1c1ccc(C(F)(F)F)cc1 (stereo not drawn) [8c]", "Experimental Target": "UniProt:P0DTD1", "IC50, µM": 28.2}
{"Compound": "CS(=O)(=O)n1cc2c(n1)CN(CC(=O)SC1=NC(c3ccc([N+](=O)[O-])cc3)C(C(=O)Nc3ccc(S(=O)(=O)O)cc3)=C(C(F)(F)F)N1)C2 (stereo not drawn) [12k]", "Experimental Target": "UniProt:P0DTD1", "IC50, µM": 0.146}
{"Compound": "O=C(CN1CCn2c(nnc2C(F)(F)F)C1)SC1=NC(c2ccc(C(F)(F)F)cc2)C(C(=O)N[C@@H](Cc2c[nH]cn2)C(=O)O)=C(C(F)(F)F)N1 (stereo partly drawn) [12d]", "Experimental Target": "UniProt:P0DTD1", "IC50, µM": 14.4}
